B1: ACSBG2 (parent)
chain: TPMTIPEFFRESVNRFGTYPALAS

- Variants of: B1
- test_protocol: protein stability index of a GFP-peptide fusion (GPS, HEK-293T) (PSI 1-6); higher = more stable;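 note: lentivirally expressed fusions sorted by FACS into six bins by GFP to DsRed ratio, PSI derived from sequencing read proportions per bin multiplied by bin number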
- study_conditions: c terminus: a fixed tail appended
measured_endpoint: protein stability index

| variant_string | value_measured |
| --- | --- |
| T4D | 2.23 |
| A23C | 1.77 |
| I5T | 2.67 |
| A21W | 2.53 |
| E11C | 1.95 |
| L22N | 3.45 |
| R10P | 3.03 |
| L22E | 3.37 |
| A23T | 2.33 |
| V13S | 2.44 |
| N14E | 2.81 |
| R15G | 1.97 |
| P20G | 2.3 |
| T1G | 2.13 |
| R15E | 2.62 |

Value source: the supplement of paper PMC10567573
